assay: chemical genetic growth profiling, strain panel (AID 1159580);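 also: tested at 20 µM; growth read once vehicle control cultures reached saturation at 30 °C; 1 = growth at the plate median or of vehicle wells; lower values mean less growth of the strain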; conditions: S. cerevisiae deletion strains, growth OD, locus YDR392W, strain spt3
The whole screen tested about 5,500 compounds, of which about 2,000 (36%) were called active. Not shown: some 18% with an inconclusive outcome. Rule as the data show it: active = normalized growth mostly below about 0.91 (no sharp cut-off); inconclusive = no clear call, values can overlap the other calls; inactive = mostly above about 0.92. The list shows a part of the results.
Would you mind answering with one of these outcomes? t = active, f = inactive

Below, 3 compounds whose answers are already recorded.
{"compound": "c1ccc2c(CC3=NCCN3)cccc2c1", "assigned-category": "f"}
{"compound": "CC(C)/C(O)=C1/C(=O)O[C@@H](c2ccoc2)[C@]2(C)C(O)[C@@H](O)[C@@]34OC5(C)OC67CC(C)(C(O)[C@]6(O)[C@@H](O)[C@]3(O5)C12)[C@H](CC(=O)O)[C@]74C (some centres not stated)", "assigned-category": "f"}
{"compound": "CC(=O)O[C@@H]1CC2C(C)(C)[C@H](O)C=C[C@]2(C)C2CC[C@@]3(C)[C@H](c4ccoc4)OC(=O)C4OC43[C@@]21C (some centres not stated)", "assigned-category": "f"}

Q. Just curious, what result did `Nc1nc(F)nc2c1ncn2[C@@H]1O[C@H](COP(=O)(O)O)[C@@H](O)[C@@H]1O` get here?
A. f

Q. Just curious, what result did CC(=O)O[C@H]1C[C@@]2(C)[C@@H](C[C@@H](O)C3[C@]2(C)CC[C@H]2[C@H](C)[C@H](O)CC[C@]32C)/C1=C(/CCC=C(C)C)C(=O)O (some centres not stated) get here?
A. f

Q. Just curious, what result did CC1(C)C(=O)[C@@H]2O[C@@H]2[C@@]2(C)C1C[C@@H](O)[C@]1(C)C2CC[C@@]2(C)[C@H](c3ccoc3)OC(=O)C3OC321 (some centres not stated) get here?
A. f

Q. Just curious, what result did O=c1[nH]c(=O)n(C2C[C@H](O)[C@@H](CO)O2)cc1C(F)(F)F (some centres not stated) get here?
A. f

Q. Just curious, what result did CN(C)CCC(c1ccccc1)c1ccccn1 (configuration not stated) get here?
A. f

Q. Just curious, what result did Clc1ccc(C(c2ccccc2Cl)C(Cl)Cl)cc1 (configuration not stated) get here?
A. f

Q. Just curious, what result did CC(=O)O[C@H]1C[C@@H](OC(C)=O)C(C)(C)C2C[C@@H](O)[C@]3(C)C(CC[C@@]4(C)[C@H](c5ccoc5)OC(=O)[C@H]5O[C@]543)[C@]21C (some centres not stated) get here?
A. f

Q. Just curious, what result did `CN(C)C(=O)Oc1ccc[n+](C)c1` get here?
A. f

* * *

experiment: chemical genetic growth profiling, strain panel (AID 1159580); conditions: S. cerevisiae deletion strains, growth OD, locus YOR184W, strain ser1, hits give low values
The campaign covered roughly 5,500 compounds. About 2,000 (36%) were called active. Inconclusive results (about 18%) are left out. Some of the results follow.
reported-metric: normalized growth
Answers are plain numbers.

Below, each entry is followed by its recorded normalized growth result.
{"molecule": "COC(=O)[C@@H]1OC(=O)C2OC23[C@@]1(C)CCC1[C@@]2(C)CCC(=O)C(C)(C)C2C[C@@H](OC(C)=O)[C@]13C (stereo not given in full)", "normalized growth": 1.03}
{"molecule": "CNc1ccc(C(=O)CC(O)CCC(C)C2OC(=O)CC(O)CC(=O)CC(O)CC(O)CC(O)CC(O)CC3(O)CC(O)C(C(=O)OC)C(CC(OC4OC(C)C(O)C(N)C4O)/C=C/C=C/C=C/C=C/C=C/C=C/C=C/C2C)O3)cc1 (stereo not given)", "normalized growth": 0.075}
{"molecule": "NC(=O)NC1NC(=O)NC1=O (stereo not given)", "normalized growth": 0.967}
{"molecule": "CCC(=O)OC1[C@@H]2CC3=C4CC(=O)O[C@@H](c5ccoc5)[C@]4(C)CCC3[C@@](C)(C2=O)[C@@H](CC(=O)OC)C1(C)C (stereo not given in full)", "normalized growth": 0.989}

Attention now shifts to the item below.
Q. // normalized growth lookup, key: `COc1ccc(-c2cc(=O)c3c(OC)cc(OC)cc3o2)cc1`
A. 0.967

* * *

experiment: chemical genetic growth profiling, strain panel (AID 1159580); settings: S. cerevisiae deletion strains, growth OD, locus YKL190W, strain CNB1, hits give low values
In all, about 5,500 compounds went through this assay and about 2,000 (36%) were called active. About 18% were inconclusive and are not listed. This is one part of the list.
reported-metric: normalized growth
Numbers only.

Below, each entry is followed by its recorded normalized growth result.
{"compound": "NC1(C(=O)O)CCC1", "reported-metric": "normalized growth", "experimental-result": 0.981}
{"compound": "COc1cc2c(cc1OC)C1(O)C(=O)c3ccc(O)c(C(=O)O)c3OC1CO2 (stereo not given)", "reported-metric": "normalized growth", "experimental-result": 0.991}
{"compound": "CCCCCCCCCCCCCC(=O)OC1C(C)C2(O)C(C=C(CO)CC3(O)C(=O)C(C)=CC32)C2C(C)(C)C12OC(C)=O (stereo not given)", "reported-metric": "normalized growth", "experimental-result": 1.02}

Report normalized growth for every entry below.
1. CC(=O)O[C@H]1C[C@@]2(C)[C@@H](C[C@@H](O)C3[C@]2(C)CC[C@H]2[C@H](C)[C@H](O)CC[C@]32C)/C1=C(/CCC=C(C)C)C(=O)O (stereo not given in full)
2. NC1(C(=O)O)CC1

A.
1.01
1.01

* * *

experiment: chemical genetic growth profiling, strain panel (AID 1159580);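 also: tested at 20 µM; growth read once vehicle control cultures reached saturation at 30 °C; 1 = growth at the plate median or of vehicle wells; lower values mean less growth of the strain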; conditions: S. cerevisiae deletion strains, growth OD, locus YML032C, strain rad52, hits give low values
Hit rate of the full screen: of about 5,500 compounds, about 2,000 (36%) were called active. Roughly 18% stayed inconclusive and do not appear here. Some of the results follow.
For each of the molecules below, state its normalized growth.

Below, each entry is followed by its recorded normalized growth result.
{"molecule": "COc1ccc2oc(-c3ccccc3)c(OC)c(=O)c2c1", "experimental-result": "0.53 (active)"}
{"molecule": "C1N2CN3CN1CN(C2)C3", "experimental-result": "0.932 (inactive)"}
{"molecule": "COc1c(C)c2c(c(O)c1C/C=C(\\C)CCC(=O)O)C(=O)OC2", "experimental-result": "0.626 (active)"}
{"molecule": "COc1ccc2c(c1)OCC(Cc1ccc(OC)c(OC)c1)C2=O (stereo unspecified)", "experimental-result": "0.984 (inactive)"}
{"molecule": "CC(=O)NCCc1c[nH]c2ccc(O)cc12", "experimental-result": "0.978 (inactive)"}
{"molecule": "C=C[C@@]1(C)CC(=O)[C@@]2(O)[C@](C)(O1)[C@@H](OC(C)=O)[C@@H](O)C1C(C)(C)CC[C@H](O)[C@@]12C (stereo partly specified)", "experimental-result": "1.01 (inactive)"}
{"molecule": "CC(C)=CC1C(C(=O)OCc2cccc(Oc3ccccc3)c2)C1(C)C (stereo unspecified)", "experimental-result": "0.983 (inactive)"}
{"molecule": "COc1ccc2c(=O)c(OC)c(-c3ccccc3)oc2c1", "experimental-result": "0.723 (active)"}

Report normalized growth for every entry below.
1. Cc1cc(CC(=O)O)n(C)c1C(=O)c1ccc(Cl)cc1
2. COc1ccc2oc3ccccc3c(=O)c2c1

A.
1. 1.02 (inactive)
2. 0.755 (active)

Q. // normalized growth lookup, key: COC1C=CC23c4cc5c(cc4CN(CC2O)[C@@H]3C1)OCO5 (stereo partly specified)
A. 0.98 (inactive)

* * *

assay: chemical genetic growth profiling, strain panel (AID 1159580);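 also: tested at 20 µM; growth read once vehicle control cultures reached saturation at 30 °C; 1 = growth at the plate median or of vehicle wells; lower values mean less growth of the strain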; settings: S. cerevisiae deletion strains, growth OD, locus YJR075W, strain HOC1
Hit rate of the full screen: of about 5,500 compounds, about 2,000 (36%) were called active. Not shown: some 18% with an inconclusive outcome. No stated cut-off is given here; in the data, active means normalized growth mostly below about 0.91 (no sharp cut-off); inconclusive means no clear call, values can overlap the other calls; inactive means mostly above about 0.92. The list shows a part of the results.
Would you mind answering with one of these outcomes? True (active), False (inactive)

Below, 5 molecules whose answers are already recorded.
{"molecule": "NC(N)=NC(N)=Nc1ccccc1C(F)(F)F", "assigned-category": "False"}
{"molecule": "Cc1cccc(C)c1NC(=O)C1CCCCN1C (configuration not stated)", "assigned-category": "False"}
{"molecule": "COC1=CC(=O)OC(CCc2ccc(OC)c(OC)c2)C1 (configuration not stated)", "assigned-category": "False"}
{"molecule": "C[C@]12CCC3c4ccc(O)cc4CCC3C1CCC2=O (some centres not stated)", "assigned-category": "False"}
{"molecule": "O=C1CSCC(=O)N1c1ccc(F)c(Cl)c1", "assigned-category": "False"}

Attention now shifts to the item below.
Q. Just curious, what result did Clc1ccc(COC(Cn2ccnc2)c2ccc(Cl)cc2Cl)cc1 (configuration not stated) get here?
A. True

* * *

For each of the compounds below, state its normalized growth.
assay: chemical genetic growth profiling, strain panel (AID 1159580);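 also: tested at 20 µM; growth read once vehicle control cultures reached saturation at 30 °C; 1 = growth at the plate median or of vehicle wells; lower values mean less growth of the strain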; details: S. cerevisiae deletion strains, growth OD, locus YER111C, strain swi4, hits give low values
In all, about 5,500 compounds went through this assay and about 2,000 (36%) were called active. Another 18% or so got no clear call; they are omitted. The list shows a part of the results.
One number for each entry.

{"compound": "C=C1C(=O)[C@]23[C@H](O)[C@H]1CC[C@H]2[C@@]12CO[C@]3(O)[C@H](O)[C@@H]1C(C)(C)CC[C@@H]2O", "experimental-result": 0.999}
{"compound": "CC(C)c1nc(N(C)S(C)(=O)=O)nc(-c2ccc(F)cc2)c1/C=C/[C@@H](O)C[C@@H](O)CC(=O)O", "experimental-result": 1.02}
{"compound": "O=C(O)CCCCCCCC(=O)O", "experimental-result": 1.01}

Attention now shifts to the item below.
Q. // normalized growth lookup, key: CCN1C[C@@]2(COC)C3[C@@H](OC)[C@H]4[C@@H]1[C@]3(C(OC)C[C@H]2O)C1C[C@@]2(O)[C@H](OC(=O)c3ccccc3)C1[C@]4(OC(C)=O)[C@@H](O)[C@@H]2OC (some centres undefined)
A. 1.01
